# System: HIV-1IIIB
# Test Details: MAGI antiviral (entry) assay with HIV-1IIIB in HeLa-derived MAGI-CCR5/CXCR4 cells
# Format: cell-based
# Measurement Setup: Human immunodeficiency virus 1; MAGI-CCR5/CXCR4 cells, β-galactosidase reporter; read-out: HeLa HIV-1IIIB MAGI IC50
# if measured IC50 < 800 nM: YES  # else: NO

Compound	Assigned Class
NCCCCN(C[C@H]1Cc2ccccc2CN1Cc1ccncn1)[C@H]1CCCc2cccnc21	YES
c1cc(CN2CCCNCCNCCCNCC2)ccc1CN1CCCNCCNCCCNCC1 [AMD3100, reference compound]	YES
CN(C[C@@H]1CN(Cc2ccc(C(F)(F)F)cc2)CCN1)[C@H]1CCCc2cccnc21	NO

---

# System: Jurkat T-lymphocyte cells
# Test Details: Inhibition of Nef M1 peptide-induced mitochondrial depolarization/apoptosis in Jurkat cells (JC-1)
# Type: cell-based, human
# Measurement Setup: concentration inhibiting M1-induced mitochondrial depolarization by 50%; JC-1; 10 ng/mL M1, 24 h; read-out: Jurkat M1 Inhibition EC50
Endpoint Name: EC50

Compound	Obs Value
CC1(C)CN2C(CSC(=NC3CCCCC3)NC3CCCCC3)=CSC2=N1 [IT1t, reference compound]	≤ 1 µM
